# Assayed system: Recombinant human his-tagged IGF R extracellular domain protein (human) (UniProt P08069)
# Assay details: SPR, Ab captured via anti-huIgG Fc, dissociation at pH 6
Quick reference for kon among some binders
Units required after the number.

Use these answered entries as a reference point.
Reported kon ( VRDN-02034 (antibody, V domains shown) VH: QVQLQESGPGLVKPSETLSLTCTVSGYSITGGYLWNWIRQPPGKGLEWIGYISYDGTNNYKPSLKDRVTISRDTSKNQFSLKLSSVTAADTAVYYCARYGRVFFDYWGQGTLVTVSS VL: DIVMTQSPLSLPVTPGEPASISCRSSQSHVHSNGNTYLQWYLQKPGQSPQLLIYKVSNRLYGVPDRFSGSGSGTDFTLKISRVEAEDVGVYYCFQGSHVPWTFGQGTKVEIK ) = 85000 M⁻¹ s⁻¹

Reported kon ( VRDN-02013 (antibody, V domains shown) VH: QVQLQESGPGLVKPSETLSLTCTVSGYSITGGYLWNWIRQPPGKGLEWIGYHSYDGTNNYKPSLKDRVTISRDTSKNQFSLKLSSVTAADTAVYYCARYGRVFFDYWGQGTLVTVSS VL: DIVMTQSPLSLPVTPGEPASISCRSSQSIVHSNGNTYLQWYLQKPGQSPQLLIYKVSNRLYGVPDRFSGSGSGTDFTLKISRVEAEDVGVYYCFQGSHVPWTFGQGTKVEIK ) = 93200 M⁻¹ s⁻¹

Reported kon ( VRDN-02038 (antibody, V domains shown) VH: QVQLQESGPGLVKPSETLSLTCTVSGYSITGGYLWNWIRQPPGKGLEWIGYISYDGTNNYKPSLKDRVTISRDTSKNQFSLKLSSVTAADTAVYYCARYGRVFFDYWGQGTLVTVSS VL: DIVMTQSPLSLPVTPGEPASISCRSSQSIVHSNHNTYLQWYLQKPGQSPQLLIYKVSNRLYGVPDRFSGSGSGTDFTLKISRVEAEDVGVYYCFQGSHVPWTFGQGTKVEIK ) = 84800 M⁻¹ s⁻¹

Reported kon ( VRDN-02048 (antibody, V domains shown) VH: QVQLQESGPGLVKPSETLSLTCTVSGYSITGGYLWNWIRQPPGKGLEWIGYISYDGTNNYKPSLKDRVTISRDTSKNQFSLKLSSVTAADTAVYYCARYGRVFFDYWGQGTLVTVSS VL: DIVMTQSPLSLPVTPGEPASISCRSSQSIVHSNGNTYLQWYLQKPGQSPQLLIYKVSNHLYGVPDRFSGSGSGTDFTLKISRVEAEDVGVYYCFQGSHVPWTFGQGTKVEIK ) = 78800 M⁻¹ s⁻¹

Reported kon ( VRDN-02021 (antibody, V domains shown) VH: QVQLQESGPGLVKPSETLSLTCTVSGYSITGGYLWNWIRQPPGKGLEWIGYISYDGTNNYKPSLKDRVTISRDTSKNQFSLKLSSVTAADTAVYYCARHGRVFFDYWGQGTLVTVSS VL: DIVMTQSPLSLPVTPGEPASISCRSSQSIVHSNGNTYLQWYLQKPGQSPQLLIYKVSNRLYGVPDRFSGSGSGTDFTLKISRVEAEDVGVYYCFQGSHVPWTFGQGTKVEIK ) = 99200 M⁻¹ s⁻¹

New cases:
Reported kon ( VRDN-02006 (antibody, V domains shown) VH: QVQLQESGPGLVKPSETLSLTCTVSGYSITHGYLWNWIRQPPGKGLEWIGYISYDGTNNYKPSLKDRVTISRDTSKNQFSLKLSSVTAADTAVYYCARYGRVFFDYWGQGTLVTVSS VL: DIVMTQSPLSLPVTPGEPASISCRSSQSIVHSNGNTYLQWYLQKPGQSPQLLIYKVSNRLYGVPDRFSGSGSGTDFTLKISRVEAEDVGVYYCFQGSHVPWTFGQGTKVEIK ) = 92300 M⁻¹ s⁻¹

Reported kon ( VRDN-02065 (antibody, V domains shown) VH: QVQLQESGPGLVKPSETLSLTCTVSGYSITGGYLWNWIRQPPGKGLEWIGYIHYDGTNNYKPSLKDRVTISRDTSKNQFSLKLSSVTAADTAVYYCARYGRVFFDYWGQGTLVTVSS VL: DIVMTQSPLSLPVTPGEPASISCRSSQSIVHSNGNTYLQWYLQKPGQSPQLLIYKVSNRLYGVPDRFSGSGSGTDFTLKISRVEAEDVGVYYCFQGSHVHWTFGQGTKVEIK ) = 208000 M⁻¹ s⁻¹

Reported kon ( VRDN-02074 (antibody, V domains shown) VH: QVQLQESGPGLVKPSETLSLTCTVSGYSITGGYLWNWIRQPPGKGLEWIGYISYHGTNNYKPSLKDRVTISRDTSKNQFSLKLSSVTAADTAVYYCARHGRVFFDYWGQGTLVTVSS VL: DIVMTQSPLSLPVTPGEPASISCRSHQSIVHSNGNTYLQWYLQKPGQSPQLLIYKVSNRLYGVPDRFSGSGSGTDFTLKISRVEAEDVGVYYCFHGSHVPWTFGQGTKVEIK ) = 232000 M⁻¹ s⁻¹

Reported kon ( VRDN-02010 (antibody, V domains shown) VH: QVQLQESGPGLVKPSETLSLTCTVSGYSITGGYLHNWIRQPPGKGLEWIGYISYDGTNNYKPSLKDRVTISRDTSKNQFSLKLSSVTAADTAVYYCARYGRVFFDYWGQGTLVTVSS VL: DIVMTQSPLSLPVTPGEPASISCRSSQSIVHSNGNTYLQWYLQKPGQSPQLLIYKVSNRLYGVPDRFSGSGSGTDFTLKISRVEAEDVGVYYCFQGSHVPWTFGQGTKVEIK ) = 97200 M⁻¹ s⁻¹

Reported kon ( VRDN-02069 (antibody, V domains shown) VH: QVQLQESGPGLVKPSETLSLTCTVSGYSITGGYLWNWIRQPPGKGLEWIGYISYHGTNNYKPSLKDRVTISRDTSKNQFSLKLSSVTAADTAVYYCARYGRVFFDYWGQGTLVTVSS VL: DIVMTQSPLSLPVTPGEPASISCRSSQSIVHSNGNTYLQWYLQKPGQSPQLLIYKVSNRLYGVPDRFSGSGSGTDFTLKISRVEAEDVGVYYCFQGSHVPHTFGQGTKVEIK ) = 172000 M⁻¹ s⁻¹
